targetSystem: Phospholipase A2, membrane associated (Homo sapiens)
Sequence (P14555 whole entry): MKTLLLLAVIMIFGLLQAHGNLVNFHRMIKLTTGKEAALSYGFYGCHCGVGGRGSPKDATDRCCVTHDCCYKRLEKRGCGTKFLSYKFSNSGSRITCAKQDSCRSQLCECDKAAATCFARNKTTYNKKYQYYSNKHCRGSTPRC
protocolDetails: Inhibition of sPLA2-2A (unknown origin) using 1-palmitoyl-2-oleoyl-sn-glycero-3-phosphocholine as substrate pretreated for 20 mins followed by substrate addition and measured after 60 mins by NEFA based assay
measuredParameter: IC50 (nM)

1) CC(Cc1cccc(-n2c(C(N)=O)cc3ccc(OC(F)(F)F)cc32)c1)C(=O)O (stereo in doubt) = 810
2) CC(Cc1ccnc(-n2c(C(N)=O)cc3ccc(OC(F)(F)F)cc32)c1)C(=O)O (stereo in doubt; 13) = 44
3) CC(CC(=O)O)c1cccc(-n2c(C(N)=O)cc3ccc(OC(F)(F)F)cc32)n1 (single isomer, unassigned; (+)) = 3800
4) NC(=O)c1cc2ccc(OC(F)(F)F)cc2n1-c1ccn(CCC(=O)O)n1 = 4000
5) NC(=O)c1cc2ccc(OC(F)(F)F)cc2n1-c1ccc(CCC(=O)O)o1 = 1900

a. CC(C)(Cc1cccc(-n2c(C(N)=O)cc3ccc(OC(F)(F)F)cc32)n1)C(=O)O
b. NC(=O)c1cc2ccc(OC(F)(F)F)cc2n1-c1cccc(CCC(=O)O)n1
c. CC(Cc1cccc(-n2c(C(N)=O)cc3ccc(OC(F)(F)F)cc32)n1)C(=O)O (stereo in doubt)
d. CCC(Cc1cccc(-n2c(C(N)=O)cc3ccc(OC(F)(F)F)cc32)n1)C(=O)O (stereo in doubt)
Sort (4 compounds) by IC50: min first. Dear reader, please state the labels in the requested order.
b, d, c, a

====

targetSystem: Group 10 secretory phospholipase A2 (Homo sapiens)
Sequence (O15496 whole entry): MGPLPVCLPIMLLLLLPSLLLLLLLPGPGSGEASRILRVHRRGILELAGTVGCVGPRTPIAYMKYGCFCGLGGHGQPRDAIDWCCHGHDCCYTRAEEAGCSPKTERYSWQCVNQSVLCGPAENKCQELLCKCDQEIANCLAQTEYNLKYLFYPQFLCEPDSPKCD
protocolDetails: Inhibition of sPLA2-10 (unknown origin) using 1-palmitoyl-2-oleoyl-sn-glycero-3-phosphocholine as substrate pretreated for 20 mins followed by substrate addition and measured after 60 mins by NEFA based assay
pIC50: −log10 of the molar value.
measuredParameter: pIC50

1. CC(CC(=O)O)c1cccc(-n2c(C(N)=O)cc3ccc(OC(F)(F)F)cc32)n1 (stereo in doubt; (-)-17) = 7.85

1. CC(Cc1cccc(-n2c(C(N)=O)cc3ccc(OC(F)(F)F)cc32)c1)C(=O)O (stereo in doubt; 10)
2. CC(Cc1cccc(-n2c(C(N)=O)cc3ccc(OC(F)(F)F)cc32)c1)C(=O)O (stereo in doubt)
3. C[C@@H](CC(=O)O)c1cccc(-n2c(C(N)=O)cc3ccc(OC(F)(F)F)cc32)c1
Sort (3 compounds) by pIC50: min first. Dear reader, please state the labels in the requested order.
2, 1, 3

====

targetSystem: Group 10 secretory phospholipase A2 (Homo sapiens, UniProt O15496)
Sequence (O15496 whole entry): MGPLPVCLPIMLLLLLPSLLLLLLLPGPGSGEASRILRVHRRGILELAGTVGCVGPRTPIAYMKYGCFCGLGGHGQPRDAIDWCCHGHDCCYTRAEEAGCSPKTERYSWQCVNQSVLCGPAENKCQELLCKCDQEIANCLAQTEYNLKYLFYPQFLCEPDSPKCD
protocolDetails: Inhibition of sPLA2-10 (unknown origin) using 1-palmitoyl-2-oleoyl-sn-glycero-3-phosphocholine as substrate pretreated for 20 mins followed by substrate addition and measured after 60 mins by NEFA based assay
pIC50: −log10 of the molar value.
measuredParameter: pIC50

1. NC(=O)c1cc2ccc(OC(F)(F)F)cc2n1-c1ccc(CCC(=O)O)o1 = 6.37
2. CC(C)(Cc1cccc(-n2c(C(N)=O)cc3ccc(OC(F)(F)F)cc32)n1)C(=O)O = 6.49

P. NC(=O)c1cc2ccc(OC(F)(F)F)cc2n1-c1ccn(CCC(=O)O)n1
Q. CC(Cc1ccnc(-n2c(C(N)=O)cc3ccc(OC(F)(F)F)cc32)c1)C(=O)O (stereo in doubt)
R. CC(Cc1cccc(-n2c(C(N)=O)cc3ccc(OC(F)(F)F)cc32)n1)C(=O)O (stereo in doubt)
Sort (3 compounds) by pIC50: min first. Dear reader, please state the labels in the requested order.
P, R, Q
(P: 5.32, R: 6.24, Q: 6.44)

====

targetSystem: Cytochrome P450 1A2 (Homo sapiens, UniProt P05177)
Sequence (P05177 whole entry): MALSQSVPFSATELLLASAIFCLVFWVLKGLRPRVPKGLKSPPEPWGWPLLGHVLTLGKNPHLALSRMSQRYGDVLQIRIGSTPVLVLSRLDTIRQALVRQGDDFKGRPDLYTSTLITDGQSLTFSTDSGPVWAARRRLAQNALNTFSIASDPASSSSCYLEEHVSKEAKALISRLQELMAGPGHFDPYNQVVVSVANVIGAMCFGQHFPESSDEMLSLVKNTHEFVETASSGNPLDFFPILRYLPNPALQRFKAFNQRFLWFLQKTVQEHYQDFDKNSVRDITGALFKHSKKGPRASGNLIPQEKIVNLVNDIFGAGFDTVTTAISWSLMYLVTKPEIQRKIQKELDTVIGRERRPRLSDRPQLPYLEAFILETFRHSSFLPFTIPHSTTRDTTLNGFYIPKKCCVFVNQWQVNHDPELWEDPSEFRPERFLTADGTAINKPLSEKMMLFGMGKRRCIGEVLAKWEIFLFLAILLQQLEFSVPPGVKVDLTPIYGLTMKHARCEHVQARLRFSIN
protocolDetails: Inhibition of recombinant human CYP1A2
pIC50: −log10 of the molar value.
measuredParameter: pIC50

Consider CC(CC(=O)O)c1cccc(-n2c(C(N)=O)cc3ccc(OC(F)(F)F)cc32)n1 (stereo in doubt; (-)-17) . Its measured pIC50 is < 4.70

====

targetSystem: Group 10 secretory phospholipase A2 (Mus musculus, UniProt Q9QXX3)
Sequence (Q9QXX3 whole entry): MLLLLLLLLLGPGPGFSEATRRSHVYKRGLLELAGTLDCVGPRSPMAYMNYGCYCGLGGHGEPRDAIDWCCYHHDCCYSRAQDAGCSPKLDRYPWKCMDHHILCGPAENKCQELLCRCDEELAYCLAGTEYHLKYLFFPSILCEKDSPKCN
protocolDetails: Inhibition of mouse sPLA2-10
measuredParameter: pIC50
Scale: negative log10 of molar concentration, which is what pIC50 denotes.

Consider CC(CC(=O)O)c1cccc(-n2c(C(N)=O)cc3ccc(OC(F)(F)F)cc32)n1 (stereo in doubt; (-)-17) . Its measured pIC50 is 7.12

====

targetSystem: Cytochrome P450 2C19 (Homo sapiens, UniProt P33261)
Sequence (P33261 whole entry): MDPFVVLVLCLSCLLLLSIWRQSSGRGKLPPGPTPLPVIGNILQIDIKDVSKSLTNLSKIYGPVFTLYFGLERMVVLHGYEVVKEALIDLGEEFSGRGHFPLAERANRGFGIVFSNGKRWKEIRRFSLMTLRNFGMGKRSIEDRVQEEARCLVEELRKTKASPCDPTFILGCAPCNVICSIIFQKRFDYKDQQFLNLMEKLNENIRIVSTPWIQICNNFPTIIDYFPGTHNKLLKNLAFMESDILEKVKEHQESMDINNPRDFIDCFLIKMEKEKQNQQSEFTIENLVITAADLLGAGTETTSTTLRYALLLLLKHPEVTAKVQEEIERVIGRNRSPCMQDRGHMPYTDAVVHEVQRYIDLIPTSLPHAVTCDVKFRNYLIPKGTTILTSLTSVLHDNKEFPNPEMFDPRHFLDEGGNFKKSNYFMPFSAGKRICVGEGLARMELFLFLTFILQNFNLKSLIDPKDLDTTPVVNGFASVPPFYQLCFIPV
protocolDetails: Inhibition of recombinant human CYP2C19
measuredParameter: IC50

Consider CC(CC(=O)O)c1cccc(-n2c(C(N)=O)cc3ccc(OC(F)(F)F)cc32)n1 (stereo in doubt; (-)-17) . Its measured IC50 is > 20 µM

====

We begin with a simple list: items and their reported hepatocyte CLint.
protocolDetails: Intrinsic clearance in human hepatocytes assessed per million cells
Type: ADME, cell-based, Hepatocyte
measurementSetup: read-out: CLH

1. NC(=O)c1cc2ccc(OC(F)(F)F)cc2n1-c1ccnc(CCC(=O)O)c1 = < 5 µL/min/1e6 cells
2. NC(=O)c1cc2ccc(OC(F)(F)F)cc2n1-c1cccc(CCC(=O)O)n1 = < 5 µL/min/1e6 cells
3. NC(=O)c1cc2ccc(OC(F)(F)F)cc2n1-c1cccc(CCC(=O)O)c1 = 9.33 µL/min/1e6 cells

Now let's try a different one.
Consider NC(=O)c1cc2ccc(OC(F)(F)F)cc2n1-c1cc(CCC(=O)O)ccn1 . Its measured hepatocyte CLint is < 5 µL/min/1e6 cells

====

targetSystem: Phospholipase A2 group V (Homo sapiens, UniProt P39877)
Sequence (P39877 whole entry): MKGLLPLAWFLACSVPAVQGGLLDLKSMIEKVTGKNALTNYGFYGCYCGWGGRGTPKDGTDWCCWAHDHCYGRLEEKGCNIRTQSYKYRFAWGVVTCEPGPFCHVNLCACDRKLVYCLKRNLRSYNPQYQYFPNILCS
measuredParameter: IC50 (nM)

I. CC(Cc1ccnc(-n2c(C(N)=O)cc3ccc(OC(F)(F)F)cc32)c1)C(=O)O (stereo in doubt; 13)
II. NC(=O)c1cc2ccc(OC(F)(F)F)cc2n1-c1cc(CCC(=O)O)ccn1
Lower IC50: I or II ? Answer format: the label of the selected item.
I
(I: 180 nM, II: 720 nM)

====

protocolDetails: Fraction unbound in C57Bl/6J mouse plasma
Format: ADME, cell-free
measuredParameter: fraction unbound
I only need the number, thanks.

Consider CC(CC(=O)O)c1cccc(-n2c(C(N)=O)cc3ccc(OC(F)(F)F)cc32)n1 (stereo in doubt; (-)-17) . Its measured fraction unbound is 0.05

====

targetSystem: Voltage-dependent L-type calcium channel subunit alpha-1C (Homo sapiens, UniProt Q13936)
protocolDetails: Inhibition of human Cav1.2 expressed in CHO cells by ionworks patch clamp assay
Assay type: cell-based
measuredParameter: IC50

Consider CC(CC(=O)O)c1cccc(-n2c(C(N)=O)cc3ccc(OC(F)(F)F)cc32)n1 (stereo in doubt; (-)-17) . Its measured IC50 is > 33 µM

====

targetSystem: Cytochrome P450 2C8 (Homo sapiens, UniProt P10632)
Sequence (P10632 whole entry): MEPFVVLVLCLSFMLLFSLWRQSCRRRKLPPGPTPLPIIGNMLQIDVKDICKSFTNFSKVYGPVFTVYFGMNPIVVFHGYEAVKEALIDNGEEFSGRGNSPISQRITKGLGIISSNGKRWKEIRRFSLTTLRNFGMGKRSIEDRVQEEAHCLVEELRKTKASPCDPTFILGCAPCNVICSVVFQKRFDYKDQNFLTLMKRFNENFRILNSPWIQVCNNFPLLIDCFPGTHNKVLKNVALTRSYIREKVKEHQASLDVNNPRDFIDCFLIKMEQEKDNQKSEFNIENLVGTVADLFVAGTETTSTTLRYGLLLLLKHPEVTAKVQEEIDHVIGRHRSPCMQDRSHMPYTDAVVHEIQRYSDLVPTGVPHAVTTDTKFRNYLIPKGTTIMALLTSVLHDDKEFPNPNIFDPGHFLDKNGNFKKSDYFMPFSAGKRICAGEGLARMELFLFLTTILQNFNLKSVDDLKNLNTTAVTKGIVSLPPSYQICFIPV
protocolDetails: Inhibition of recombinant human CYP2C8
pIC50: −log10 of the molar value.
measuredParameter: pIC50

Consider CC(CC(=O)O)c1cccc(-n2c(C(N)=O)cc3ccc(OC(F)(F)F)cc32)n1 (stereo in doubt; (-)-17) . Its measured pIC50 is < 4.70

====

targetSystem: Voltage-dependent T-type calcium channel subunit alpha-1H (Homo sapiens, UniProt O95180)
Sequence (O95180 whole entry): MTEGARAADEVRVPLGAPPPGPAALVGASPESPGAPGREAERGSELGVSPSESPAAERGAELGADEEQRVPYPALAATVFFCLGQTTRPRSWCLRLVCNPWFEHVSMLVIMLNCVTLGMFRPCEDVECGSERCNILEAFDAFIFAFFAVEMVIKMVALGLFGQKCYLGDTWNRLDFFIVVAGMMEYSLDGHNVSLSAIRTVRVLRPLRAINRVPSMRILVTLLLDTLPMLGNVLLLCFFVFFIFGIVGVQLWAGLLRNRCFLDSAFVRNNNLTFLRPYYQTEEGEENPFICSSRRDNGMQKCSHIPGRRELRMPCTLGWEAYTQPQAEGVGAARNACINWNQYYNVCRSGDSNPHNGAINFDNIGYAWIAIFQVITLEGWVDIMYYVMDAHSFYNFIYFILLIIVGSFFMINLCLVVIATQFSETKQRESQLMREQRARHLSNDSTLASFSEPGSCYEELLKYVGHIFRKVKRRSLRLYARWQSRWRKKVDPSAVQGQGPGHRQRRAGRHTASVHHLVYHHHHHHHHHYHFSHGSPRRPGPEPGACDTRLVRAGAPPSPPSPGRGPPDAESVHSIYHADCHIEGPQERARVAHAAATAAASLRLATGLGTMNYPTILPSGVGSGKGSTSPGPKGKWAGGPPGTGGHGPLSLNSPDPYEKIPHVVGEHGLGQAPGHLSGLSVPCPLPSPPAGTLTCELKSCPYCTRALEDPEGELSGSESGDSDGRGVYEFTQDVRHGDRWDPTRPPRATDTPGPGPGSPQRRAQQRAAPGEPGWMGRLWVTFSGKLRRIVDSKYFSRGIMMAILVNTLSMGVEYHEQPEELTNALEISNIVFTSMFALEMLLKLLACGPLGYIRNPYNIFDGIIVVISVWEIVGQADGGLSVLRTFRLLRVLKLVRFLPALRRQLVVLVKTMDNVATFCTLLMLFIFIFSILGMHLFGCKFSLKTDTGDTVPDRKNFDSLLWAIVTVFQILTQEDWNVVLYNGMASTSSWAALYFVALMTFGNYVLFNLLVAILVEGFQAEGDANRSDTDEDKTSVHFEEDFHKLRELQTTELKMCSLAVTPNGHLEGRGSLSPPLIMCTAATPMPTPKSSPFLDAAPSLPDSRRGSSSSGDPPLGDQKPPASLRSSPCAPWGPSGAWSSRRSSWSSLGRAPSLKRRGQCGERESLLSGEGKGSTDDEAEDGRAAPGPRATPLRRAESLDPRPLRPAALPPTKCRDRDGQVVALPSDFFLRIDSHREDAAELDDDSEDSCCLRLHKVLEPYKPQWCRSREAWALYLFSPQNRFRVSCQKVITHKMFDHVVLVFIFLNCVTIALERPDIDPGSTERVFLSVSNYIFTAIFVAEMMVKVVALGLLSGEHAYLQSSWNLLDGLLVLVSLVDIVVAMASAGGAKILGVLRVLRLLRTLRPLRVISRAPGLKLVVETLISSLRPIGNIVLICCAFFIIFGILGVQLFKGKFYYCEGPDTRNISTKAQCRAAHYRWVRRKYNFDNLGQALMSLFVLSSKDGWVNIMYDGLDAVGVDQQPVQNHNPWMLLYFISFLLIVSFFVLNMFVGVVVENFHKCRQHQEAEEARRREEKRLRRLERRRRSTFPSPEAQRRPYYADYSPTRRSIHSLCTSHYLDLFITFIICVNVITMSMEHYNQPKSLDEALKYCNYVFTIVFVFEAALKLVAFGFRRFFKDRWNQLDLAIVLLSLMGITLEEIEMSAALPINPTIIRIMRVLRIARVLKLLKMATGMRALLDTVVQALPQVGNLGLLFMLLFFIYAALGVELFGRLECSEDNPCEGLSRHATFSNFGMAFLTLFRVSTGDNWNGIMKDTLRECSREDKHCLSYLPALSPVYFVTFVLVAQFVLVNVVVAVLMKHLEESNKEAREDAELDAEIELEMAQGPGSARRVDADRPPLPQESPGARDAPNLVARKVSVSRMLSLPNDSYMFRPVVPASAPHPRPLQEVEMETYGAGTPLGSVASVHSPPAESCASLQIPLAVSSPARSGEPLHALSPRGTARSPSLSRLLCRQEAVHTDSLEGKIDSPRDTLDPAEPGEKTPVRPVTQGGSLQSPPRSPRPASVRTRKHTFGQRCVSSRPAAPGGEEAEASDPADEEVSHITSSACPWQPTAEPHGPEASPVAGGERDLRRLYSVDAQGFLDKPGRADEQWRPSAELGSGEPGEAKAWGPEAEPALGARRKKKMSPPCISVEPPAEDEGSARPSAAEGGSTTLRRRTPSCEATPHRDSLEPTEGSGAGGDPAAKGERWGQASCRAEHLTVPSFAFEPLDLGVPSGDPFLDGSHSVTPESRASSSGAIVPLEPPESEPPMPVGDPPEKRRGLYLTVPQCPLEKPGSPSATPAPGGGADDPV
protocolDetails: Inhibition of human Cav3.2 expressed in CHO cells by ionworks patch clamp assay
Format: cell-based
measuredParameter: IC50

Consider CC(CC(=O)O)c1cccc(-n2c(C(N)=O)cc3ccc(OC(F)(F)F)cc32)n1 (stereo in doubt; (-)-17) . Its measured IC50 is > 33 µM

====

targetSystem: Cytochrome P450 3A4 (Homo sapiens, UniProt P08684)
Sequence (P08684 whole entry): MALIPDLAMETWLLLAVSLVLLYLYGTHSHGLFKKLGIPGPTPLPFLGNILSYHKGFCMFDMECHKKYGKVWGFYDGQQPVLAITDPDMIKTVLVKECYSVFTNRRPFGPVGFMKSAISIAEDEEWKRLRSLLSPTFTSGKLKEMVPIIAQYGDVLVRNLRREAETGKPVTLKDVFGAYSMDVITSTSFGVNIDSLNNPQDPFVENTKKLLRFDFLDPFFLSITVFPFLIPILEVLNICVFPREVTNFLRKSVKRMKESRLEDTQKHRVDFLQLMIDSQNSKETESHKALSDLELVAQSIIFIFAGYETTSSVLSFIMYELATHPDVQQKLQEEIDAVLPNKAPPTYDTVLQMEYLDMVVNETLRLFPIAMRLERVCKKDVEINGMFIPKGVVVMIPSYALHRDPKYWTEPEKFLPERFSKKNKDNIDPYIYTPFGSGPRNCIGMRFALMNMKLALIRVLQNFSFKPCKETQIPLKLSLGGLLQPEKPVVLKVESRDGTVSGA
protocolDetails: Inhibition of recombinant human CYP3A4
measuredParameter: IC50

Test item CC(CC(=O)O)c1cccc(-n2c(C(N)=O)cc3ccc(OC(F)(F)F)cc32)n1 (stereo in doubt; (-)-17) ; Cytochrome P450 3A4 (Homo sapiens, UniProt P08684); reported IC50 was > 20 µM
